# TGI annotations
- System: SF-295 CNS
- Protocol details: NCI tumour cell line growth inhibition, 48 h
Value kind: TGI

[[record]]
molecule = "CCCCOP(=O)(OCCCC)/C(C#N)=C/c1ccco1"
result = "> 100 µM"

[[record]]
molecule = "CCc1ccc(/C(C)=N/NC(N)=S)cc1"
result = "> 100 µM"

[[record]]
molecule = "C[C@@]1(c2ncncc2F)NC(=O)c2cc(-c3cn[nH]c3)ccc21"
result = "> 100 µM"

[[record]]
molecule = "CCCC(=O)N/S(=N/S(=O)(=O)c1ccc(Cl)cc1)C(Cl)(Cl)Cl (stereo unspecified)"
result = "> 100 µM"

[[record]]
molecule = "O=c1cc(NCC2CCCCC2)[nH]c(=O)[nH]1"
result = "> 100 µM"

[[record]]
molecule = "Cc1ccc(C)c(/C(=N\\N=C(N)N)C2CC2)c1"
result = "> 100 µM"

[[record]]
molecule = "C[C@H]1CCC/C=C/[C@@H]2C[C@H](O)C[C@H]2[C@H](O)[C@@H](S(=O)CCN)CC(=O)O1 (stereo partly specified)"
result = "> 100 µM"

[[record]]
molecule = "CC12CCc3ccccc3C1=Nc1ccccc12 (stereo unspecified)"
result = "> 100 µM"

[[record]]
molecule = "Cn1cnc([N+](=O)[O-])c1SCC(=O)O"
result = "> 100 µM"

[[record]]
molecule = "CCCCSC1=N/C(=C\\c2ccco2)C(=O)N1"
result = "> 100 µM"

[[record]]
molecule = "CN(C)c1ncnc2c1ncn2C1C=CC(COS(N)(=O)=O)C1 (stereo unspecified)"
result = "> 100 µM"


* * *

- System: UACC-257 melanoma
- Protocol details: NCI tumour cell line growth inhibition, 48 h
Value kind: TGI

[[record]]
compound = "CCN(CC)Cc1ccc2cccnc2c1O"
tested_target = "UACC-257 melanoma"
result = "> 100 µM"

[[record]]
compound = "CCOC(=O)C1=C(O)c2ccccc2C(=O)C1=O"
tested_target = "UACC-257 melanoma"
result = "> 100 µM"

[[record]]
compound = "Cc1[nH]nc2c1N=C(c1ccccc1F)c1cc(C#N)ccc1N2"
tested_target = "UACC-257 melanoma"
result = "> 25 µM"

[[record]]
compound = "C/C(=N\\NS(=O)(=O)c1ccc(C)cc1)C(CN(C)C)C(c1ccccc1)c1c(O)c2ccccc2oc1=O (configuration not stated)"
tested_target = "UACC-257 melanoma"
result = "> 100 µM"

[[record]]
compound = "CCN(CC)CCN=Cc1c(O)c(O)c(C(C)C)c2cc(C)c(-c3c(C)cc4c(C(C)C)c(O)c(O)c(C=NCCN(CC)CC)c4c3O)c(O)c12"
tested_target = "UACC-257 melanoma"
result = "18.8 µM"

[[record]]
compound = "COc1ccc(/C=C2\\N=C(c3ccccc3)N(Nc3nnc(NN4C(=O)/C(=C/c5ccc(OC)cc5)N=C4c4ccccc4)c4ccccc34)C2=O)cc1"
tested_target = "UACC-257 melanoma"
result = "> 100 µM"

[[record]]
compound = "O=C1Nc2ccccc2[C@]12C[C@H]2c1ccccn1"
tested_target = "UACC-257 melanoma"
result = "> 100 µM"

[[record]]
compound = "CC[C@H](Nc1nc(N)nc(N)c1Cl)c1nc2cccc(NCc3ccc(C(=O)NO)cc3)c2c(=O)n1-c1ccccc1"
tested_target = "UACC-257 melanoma"
result = "4.92 µM"

[[record]]
compound = "Cc1cccc2c1Oc1cc(Cl)ccc1C2NC(=O)CN(C)C (configuration not stated)"
tested_target = "UACC-257 melanoma"
result = "89.5 µM"

[[record]]
compound = "NC12CC3CC(C1)CC(Cl)(C3)C2"
tested_target = "UACC-257 melanoma"
result = "> 100 µM"

[[record]]
compound = "COc1ccc(Nc2nc(N)c(C(=O)c3ccc(OC)cc3)s2)cc1"
tested_target = "UACC-257 melanoma"
result = "> 100 µM"

[[record]]
compound = "O=C1C=CN(C2OC(CO)C(O)C2O)C(=O)C1 (configuration not stated)"
tested_target = "UACC-257 melanoma"
result = "> 1940 µM"

[[record]]
compound = "BrC(Br)(Br)c1cnc2ccccc2n1"
tested_target = "UACC-257 melanoma"
result = "6.48 µM"

[[record]]
compound = "CCCC[P+](c1ccccc1)(c1ccccc1)c1ccccc1"
tested_target = "UACC-257 melanoma"
result = "7.6 µM"

[[record]]
compound = "Cc1ccc(C2SCc3nc4ccc(C(=O)c5ccccc5)cc4n32)cc1 (configuration not stated)"
tested_target = "UACC-257 melanoma"
result = "> 61.9 µM"

[[record]]
compound = "CC(=O)n1nc(-c2nc3ccccc3nc2Cl)cc1Cl"
tested_target = "UACC-257 melanoma"
result = "> 100 µM"

[[record]]
compound = "Cc1ccc(S(=O)(=O)NC(CCC(=O)Nc2ccccc2)C(=O)Nc2ccccc2)cc1 (configuration not stated)"
tested_target = "UACC-257 melanoma"
result = "2.36 µM"

